Hey, just so you know, these numbers are from patent US9365576B2.

- study.target: human MDM2 protein (amino acids 2-188) (Homo sapiens (Human), UniProt Q00987)
- Sequence (Q00987 2-188): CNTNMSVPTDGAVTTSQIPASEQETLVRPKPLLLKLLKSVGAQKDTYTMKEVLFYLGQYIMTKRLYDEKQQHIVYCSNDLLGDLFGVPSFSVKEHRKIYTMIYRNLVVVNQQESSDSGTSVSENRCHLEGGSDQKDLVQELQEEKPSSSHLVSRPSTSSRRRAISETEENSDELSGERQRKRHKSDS
- assay.protocol: TR-FRET assay, p53-MDM2 Assay 2 (modified)
- Assay type: binding
- protocol.conditions: TR-FRET; 0.1 nM MDM2, 0.1 nM Europium labeled streptavidin, Tecan genios Pro reader; read-out: IC50 p53-MDM2 Assay 2
recorded.metric: pIC50
Numbers only, as −log10 of the molar value.

INSERT INTO assay_data (compound, recorded_metric, readout_number) VALUES
  ('COc1ccccc1-c1cc2c(n1C(C)C)C(c1ccc(Cl)cc1)N([C@H]1CC[C@H](O)CC1)C2=O (stereo partly shown) [Example 63]', 'pIC50', 8.09),
  ('COc1ncc(-c2cc3c(n2C(C)C)[C@H](c2ccc(C#N)c(F)c2)N(c2cc(Cl)c(=O)n(C)c2)C3=O)c(OC)n1 [Example 237]', 'pIC50', 9.97),
  ('COc1ccncc1-c1cc2c(n1C(C)C)C(c1ccc(Cl)cc1C)N(c1cccc(Cl)c1F)C2=O (stereo not shown) [Example 6]', 'pIC50', 9.76);

Ask | Query (compound): COc1ncc(-c2cc3c(n2C(C)C)C(c2ccc(C#N)cc2)N(c2cc(Cl)c(=O)n(C)c2)C3=O)c(OC)n1 (stereo not shown) [Example 153] ; field requested: pIC50
Reply | 9.37

---

- study.target: human MDM2 protein (amino acids 2-188) (Homo sapiens (Human))
- assay.protocol: TR-FRET assay, p53-MDM2 Assay 2 (modified)
- Assay type: binding
- protocol.conditions: TR-FRET; 0.1 nM MDM2, 0.1 nM Europium labeled streptavidin, Tecan genios Pro reader; read-out: IC50 p53-MDM2 Assay 2
What pIC50 was measured for each of the following?
One number for each entry, as −log10 of the molar value.

Solved entries:
INSERT INTO measurements (compound, recorded_metric, readout_number) VALUES
  ('CNc1ncc(-c2cc3c(n2C(C)C)C(c2ccc(Cl)cc2)N(c2cc(Cl)cn(C)c2=O)C3=O)c(OC)n1 (stereo not shown)', 'pIC50', 9.53),
  ('COc1ncc(-c2cc3c(n2C(C)C)C(c2ccc(C#N)cc2)N(c2cc(Cl)ccc2C)C3=O)c(OC)n1 (stereo not shown)', 'pIC50', 9.78);

Parameters: items (list). Returns: pIC50 for each item.
1. COc1nc(N(C)C)ncc1-c1cc2c(n1C(C)C)C(c1ccc(Cl)c(F)c1)N(c1cc(Cl)c(=O)n(C)c1)C2=O (stereo not shown)
2. COc1nc(N(C)C)ncc1-c1c(C(=O)O)c2c(n1C(C)C)C(c1ccc(Cl)cc1)N(c1cc(Cl)c(=O)n(C)c1)C2=O (stereo not shown)

Reply |
[9.86, 9.88]

---

- study.target: human MDM2 protein (amino acids 2-188) (Homo sapiens (Human))
- assay.protocol: TR-FRET assay, p53-MDM2 Assay 2 (modified)
- Type: binding
- protocol.conditions: TR-FRET; 0.1 nM MDM2, 0.1 nM Europium labeled streptavidin, Tecan genios Pro reader; read-out: IC50 p53-MDM2 Assay 2
Can you tell me IC50 for the items I'm about to list?

INSERT INTO assay_data (compound, recorded_metric, result) VALUES
  ('COc1nc(N(C)C)ncc1-c1cc2c(n1C(C)C)[C@@H](c1ccc(Cl)c(F)c1)N(c1cc(Cl)c[nH]c1=O)C2=O [Example 228]', 'IC50', '48.7 nM'),
  ('COc1nc(N)ncc1-c1cc2c(n1C(C)C)C(c1ccc(C#N)cc1)N(c1cc(Cl)c[nH]c1=O)C2=O (centres unmarked) [Example 125]', 'IC50', '3.22 nM'),
  ('COc1nc(N)ncc1-c1cc2c(n1C(C)C)C(c1ccc(C#N)cc1)N(c1c[nH]c(=O)c(Cl)c1)C2=O (centres unmarked) [Example 134]', 'IC50', '1.25 nM'),
  ('COc1nc(N)ncc1-c1cc2c(n1C(C)C)C(c1ccc(C#N)cc1)N(c1cc(Cl)ccc1C)C2=O (centres unmarked) [Example 43]', 'IC50', '0.401 nM');

Please report IC50 for every entry that follows.
1. COc1nc(N)ncc1-c1cc2c(n1C(C)C)[C@@H](c1ccc(C#N)cc1)N(c1cccc(Cl)c1F)C2=O [Example 155]
2. COc1ccc(C(=O)O)cc1-c1cc2c(n1C(C)C)C(c1ccc(Cl)cc1)N(c1cc(Cl)ccc1C)C2=O (centres unmarked) [Example 35]
3. CNC(=O)c1ccc(OC)c(-c2cc3c(n2C(C)C)[C@H](c2ccc(Cl)cc2)N(c2cc(Cl)ccc2C)C3=O)c1 [Example 18]
4. COc1ccc(C(=O)N2CCOCC2)cc1-c1cc2c(n1C(C)C)C(c1ccc(Cl)cc1)N(c1cc(Cl)c(=O)n(C)c1)C2=O (centres unmarked) [Example 47]
5. COc1nc(N)ncc1-c1cc2c(n1C(C)C)C(c1ccc(Cl)cc1)N(c1cc(C)nn1C)C2=O (centres unmarked) [Example 175]
6. COc1ccc(S(C)(=O)=O)cc1-c1cc2c(n1C(C)C)C(c1ccc(Cl)cc1)N(c1cc(Cl)c(=O)n(C)c1)C2=O (centres unmarked) [Example 119]
7. COc1ncc(CC#N)cc1-c1cc2c(n1C(C)C)C(c1ccc(C#N)cc1)N(c1cccc(Cl)c1F)C2=O (centres unmarked) [Example 88]

Reply |
1. 43 nM
2. 0.169 nM
3. 0.095 nM
4. 0.15 nM
5. 3.72 nM
6. 0.168 nM
7. 1.64 nM

Parameters: items (list). Returns: IC50 for each item.
1. COc1nc(N)ncc1-c1cc2c(n1C(C)C)[C@H](c1ccc(C#N)cc1)N(c1cccc(Cl)c1F)C2=O [Example 154]
2. CNc1ncc(-c2cc3c(n2C(C)C)[C@H](c2ccc(C#N)cc2)N(c2cc(Cl)cn(C)c2=O)C3=O)c(OC)n1 [Example 165]
3. COc1ncc(-c2cc3c(n2C(C)C)C(c2ccc(C#N)cc2)N([C@H]2CC[C@H](O)CC2)C3=O)c(OC)n1 (some centres unmarked) [Example 173]

Reply |
0.328 nM
0.578 nM
13.6 nM
